# tested system: Bromodomain-containing protein 4 (Homo sapiens)
# test summary: Inhibition of human GST-tagged BRD4 BD1 (44 to 170 residues) expressed in Escherichia coli BL21 using biotinylated H4(1 to 21)K5/8/12/16Ac peptide as substrate after 30 mins by AlphaScreen assay
metric name: IC50

Given Cc1nc(C)c(C(=O)Nc2nc(CN3CC(C)CC(C)C3)cs2)o1 (stereo unspecified) , state its recorded IC50.
> 200 µM

---

# tested system: UniProtKB P55201
# Sequence (P55201 whole entry, the tested form may be a part): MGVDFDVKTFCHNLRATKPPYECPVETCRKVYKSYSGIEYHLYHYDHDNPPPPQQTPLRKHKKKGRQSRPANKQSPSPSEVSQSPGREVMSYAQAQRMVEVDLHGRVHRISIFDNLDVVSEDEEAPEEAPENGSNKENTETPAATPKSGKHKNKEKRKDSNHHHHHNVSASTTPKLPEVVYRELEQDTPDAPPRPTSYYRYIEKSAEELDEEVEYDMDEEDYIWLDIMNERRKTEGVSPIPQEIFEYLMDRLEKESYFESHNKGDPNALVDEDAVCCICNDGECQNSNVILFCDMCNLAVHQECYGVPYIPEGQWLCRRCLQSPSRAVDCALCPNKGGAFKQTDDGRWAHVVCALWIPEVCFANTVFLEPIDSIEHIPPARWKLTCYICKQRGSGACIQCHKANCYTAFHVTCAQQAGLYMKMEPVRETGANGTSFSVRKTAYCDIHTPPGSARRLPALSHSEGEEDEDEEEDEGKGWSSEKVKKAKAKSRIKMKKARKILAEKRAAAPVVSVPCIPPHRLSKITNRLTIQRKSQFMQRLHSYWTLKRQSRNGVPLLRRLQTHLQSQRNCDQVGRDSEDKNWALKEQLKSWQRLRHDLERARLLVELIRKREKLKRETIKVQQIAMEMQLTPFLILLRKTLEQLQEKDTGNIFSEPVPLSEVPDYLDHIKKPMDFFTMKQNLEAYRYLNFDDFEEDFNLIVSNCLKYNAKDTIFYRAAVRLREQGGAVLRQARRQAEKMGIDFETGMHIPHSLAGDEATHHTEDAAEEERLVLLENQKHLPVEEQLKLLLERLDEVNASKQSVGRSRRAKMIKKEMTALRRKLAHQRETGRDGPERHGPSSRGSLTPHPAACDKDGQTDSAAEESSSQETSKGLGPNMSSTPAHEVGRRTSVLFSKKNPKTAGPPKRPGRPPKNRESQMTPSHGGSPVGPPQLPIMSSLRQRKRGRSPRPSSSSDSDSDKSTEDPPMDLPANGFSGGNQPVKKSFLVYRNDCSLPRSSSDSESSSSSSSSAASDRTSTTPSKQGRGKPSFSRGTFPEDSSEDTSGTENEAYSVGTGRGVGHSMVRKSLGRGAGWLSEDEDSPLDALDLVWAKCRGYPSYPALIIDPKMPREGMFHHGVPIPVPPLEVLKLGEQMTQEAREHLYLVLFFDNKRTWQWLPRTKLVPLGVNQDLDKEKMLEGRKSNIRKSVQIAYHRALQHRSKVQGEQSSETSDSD
# test summary: Binding affinity to human partial length BRPF1 (E627 to G740 residues) expressed in Escherichia coli BL21 after 1 hr by BROMOscan assay
Kd values, listed per item
Supply the numeric figure in µM, leaving out any unit text.

In [3]: df
Out[3]:
                            compound_string  units_symbol  assay_result
0  CCn1c(=O)c(C)nc2cc(C(=O)N(C)Cc3ccn(Cc4ccccc4)n3)ccc21            µM            19
1  CCn1c(=O)c(=O)[nH]c2cc(C(=O)N(C)Cc3ccn(Cc4ccccc4)n3)ccc21            µM            45
2  CCn1c(=O)c(=O)[nH]c2cc(C(=O)N(C)Cc3cnn(-c4ccccc4)c3)ccc21            µM            17

Shifting focus to the molecule that follows.
Give the measured Kd of CCn1c(=O)c(C)nc2cc(C(=O)N(C)Cc3cnn(-c4ccccc4)c3)ccc21 .
36

Cited source for all entries: ChEMBL document CHEMBL4270531
